# procedure.text: Solubility
# Assay type: physicochemical
# particulars: 2N HCl
endpoint.label: solubility in 2N HCl

[[record]]
molecule = "CON=CC1=CCCN(C(=O)OCC(=O)N2CCCCC2)C1 [Example 4]"
reported_value = "insoluble"

[[record]]
molecule = "CCN(CC)C(=O)COC(=O)N1CCC=C(C=NOC)C1 [Example 2]"
reported_value = "insoluble"

[[record]]
molecule = "C=CCN(CC=C)C(=O)COC(=O)N1CCC=C(C=NOC)C1 [Example 3]"
reported_value = "insoluble"


====

# Test system: male mice (CD1 Charles Rivers)
# procedure.text: Diarrheic activity, oral
# Assay type: in vivo, mouse
endpoint.label: DE50 (dose which caused diarrhoea in 50% of the animals) (mg/kg)
Write it as a number; the unit mg/kg goes unstated.

If you can, please state the reported DE50 (dose which caused diarrhoea in 50% of the animals) value of COC(=O)C1=CCCN(C)C1 [Arecoline, HBr, reference compound] .
35

====

# procedure.text: Acute toxicity, oral, mortality over 7 days
# particulars: mouse, in vivo, male mice
endpoint.label: LD50 at 168 h (mg/kg)
Write it as a number; the unit mg/kg goes unstated.

If you can, please state the reported LD50 at 168 h value of `C=CCN(CC=C)C(=O)COC(=O)N1CCC=C(C=NOC)C1` .
500

====

# procedure.text: Solubility
# Assay type: physicochemical
# particulars: H2O
endpoint.label: solubility in water

[[record]]
mol = "CCN(CC)C(=O)COC(=O)N1CCC=C(C=NOC)C1"
reported_value = "insoluble"

[[record]]
mol = "C=CCN(CC=C)C(=O)COC(=O)N1CCC=C(C=NOC)C1"
reported_value = "insoluble"

[[record]]
mol = "CON=CC1=CCCN(C(=O)OCC(=O)N2CCCCC2)C1"
reported_value = "insoluble"

